experimental-system: α4β1 integrin (Homo sapiens, UniProt P05556+P13612)
Construct: monitoring the capture of α4β1 expressing cells; endogenous in cells; host or cells: Jurkat
Sequence (P13612 34-1032): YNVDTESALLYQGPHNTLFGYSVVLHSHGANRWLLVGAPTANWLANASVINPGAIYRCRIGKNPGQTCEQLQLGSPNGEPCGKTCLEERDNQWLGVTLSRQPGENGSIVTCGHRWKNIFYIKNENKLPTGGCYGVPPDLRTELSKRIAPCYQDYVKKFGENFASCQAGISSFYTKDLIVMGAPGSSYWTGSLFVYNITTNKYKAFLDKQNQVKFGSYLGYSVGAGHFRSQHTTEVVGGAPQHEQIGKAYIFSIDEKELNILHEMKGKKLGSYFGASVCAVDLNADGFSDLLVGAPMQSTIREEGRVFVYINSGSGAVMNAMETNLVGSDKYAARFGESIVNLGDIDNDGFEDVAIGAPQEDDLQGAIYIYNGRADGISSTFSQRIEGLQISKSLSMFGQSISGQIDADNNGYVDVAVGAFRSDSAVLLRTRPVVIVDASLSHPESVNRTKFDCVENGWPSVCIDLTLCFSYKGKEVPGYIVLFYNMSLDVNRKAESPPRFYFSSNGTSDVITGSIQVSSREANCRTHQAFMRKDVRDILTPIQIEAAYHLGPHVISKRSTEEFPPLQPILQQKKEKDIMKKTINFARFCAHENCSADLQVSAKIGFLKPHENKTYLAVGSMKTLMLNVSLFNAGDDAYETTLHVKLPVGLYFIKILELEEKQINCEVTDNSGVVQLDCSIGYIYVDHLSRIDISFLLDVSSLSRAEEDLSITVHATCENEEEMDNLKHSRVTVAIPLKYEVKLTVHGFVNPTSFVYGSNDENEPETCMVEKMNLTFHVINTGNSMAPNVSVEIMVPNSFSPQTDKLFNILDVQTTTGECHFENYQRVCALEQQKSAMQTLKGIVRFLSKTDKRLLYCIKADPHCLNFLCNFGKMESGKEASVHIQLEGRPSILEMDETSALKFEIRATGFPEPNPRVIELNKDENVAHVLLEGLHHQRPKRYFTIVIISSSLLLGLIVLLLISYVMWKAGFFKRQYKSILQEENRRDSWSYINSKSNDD
Sequence (P05556 21-798): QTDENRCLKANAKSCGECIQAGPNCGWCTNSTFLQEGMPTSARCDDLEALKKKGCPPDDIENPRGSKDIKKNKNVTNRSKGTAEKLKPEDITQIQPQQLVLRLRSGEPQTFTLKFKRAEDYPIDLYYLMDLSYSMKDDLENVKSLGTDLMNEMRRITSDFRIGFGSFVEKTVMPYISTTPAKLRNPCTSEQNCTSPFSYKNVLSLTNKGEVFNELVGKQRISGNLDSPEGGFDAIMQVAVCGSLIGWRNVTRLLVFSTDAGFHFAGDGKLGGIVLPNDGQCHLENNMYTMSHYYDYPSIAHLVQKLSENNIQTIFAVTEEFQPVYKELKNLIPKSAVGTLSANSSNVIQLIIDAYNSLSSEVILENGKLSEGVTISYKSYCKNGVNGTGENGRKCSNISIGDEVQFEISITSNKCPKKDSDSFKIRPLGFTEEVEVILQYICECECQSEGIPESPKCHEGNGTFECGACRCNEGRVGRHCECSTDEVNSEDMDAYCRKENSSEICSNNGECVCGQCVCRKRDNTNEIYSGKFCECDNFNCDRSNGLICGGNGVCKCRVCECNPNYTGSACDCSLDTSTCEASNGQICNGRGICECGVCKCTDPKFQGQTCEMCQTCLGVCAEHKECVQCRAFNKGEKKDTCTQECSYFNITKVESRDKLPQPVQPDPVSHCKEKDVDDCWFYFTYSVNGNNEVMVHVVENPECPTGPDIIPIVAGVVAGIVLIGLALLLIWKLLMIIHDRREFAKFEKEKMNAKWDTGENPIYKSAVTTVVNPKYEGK
experiment: α4β1 Cell Capture Assay
Type: cell-based
condition-label: capture of α4β1 expressing Jurkat cells on VCAM-1 extracellular domain-coated plate; Table 2

>  <compound>
Cn1c(=O)c(-c2ccc(C[C@H](NC(=O)c3c(F)cc(N4CCOC[C@@H]4C(F)(F)F)cc3F)C(=O)O)cc2)cc2cnccc21 [Example 35]

>  <EC50 (µM)>
0.0341

$$$$
>  <compound>
COc1cnc2c(=O)n(-c3ccc(C[C@H](NC(=O)c4c(C)cc(N5CCOC[C@@H]5C(F)(F)F)cc4F)C(=O)O)cn3)c(=O)n(C)c2c1 [Example 78]

>  <EC50 (µM)>
0.0034

$$$$
>  <compound>
Cc1cc(N2CCOC[C@@H]2CC(F)(F)F)cc(F)c1C(=O)N[C@@H](Cc1ccc(-n2c(=O)c3ccncc3n(C)c2=O)nc1)C(=O)O [Example 87]

>  <EC50 (µM)>
0.0197

$$$$
>  <compound>
Cc1nc(-c2ccc(C[C@H](NC(=O)c3c(F)cc(N4CCOC[C@@H]4C(F)(F)F)cc3F)C(=O)O)cc2)c(=O)n(C)c1C [Example 38]

>  <EC50 (µM)>
0.0861

$$$$
